assay: perturbers of mRNA poly(A) processing – luminescence, S. cerevisiae, primary screen (AID 1875);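 note: yeast exposed to compound for 9 h at 30 °C; higher score means more reporter readthrough which indicates perturbed polyadenylation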; conditions: S. cerevisiae SKY197-pL101 polyadenylation reporter, beta-gal luminescence; at 12 µM; stronger effect = higher value; efflux-impaired pdr1/pdr3 knockout yeast; score 100 = 6 SD above DMSO
The campaign covered roughly 300,000 compounds. About 65 (0.02%) were called active. What follows is part of a selection rich in actives, with near analogues and random picks from the rest.
Would you kindly list activity score for each of these compounds?
Note: unit % is implicit; provide only the numeric part.

Enquiry: Request the reported activity score associated with "O=C(NCc1ccccc1Cl)NC(=O)c1csc([N+](=O)[O-])c1"
Return: 8.38

Enquiry: Request the reported activity score associated with "COc1ccc(/C=C2\SC(=S)N(CCC(=O)Nc3ccccn3)C2=O)cc1OC"
Return: 14.3

Enquiry: Request the reported activity score associated with "CC(=O)Nc1cccc(OCC(=O)/C=C2\N(C)c3ccccc3C2(C)C)c1"
Return: -11.1

Enquiry: Request the reported activity score associated with CC1C(=O)NC(=O)C1c1ccccc1 (configuration not stated)
Return: -10.6

Enquiry: Request the reported activity score associated with "Cn1nccc1/C=N\NC(=O)c1ccc(Cl)cc1"
Return: 7.4

Enquiry: Request the reported activity score associated with "NC(=O)c1oc2ccccc2c1NC(=O)CS(=O)(=O)c1ccccc1"
Return: 13.3

Enquiry: Request the reported activity score associated with CCOc1ccc(C2c3[nH]c4ccccc4c3CCN2Cc2cccn2-c2ncccn2)cc1 (configuration not stated)
Return: 0.986

These measurements were taken from PubChem BioAssay AID1875.
